assay: Assessment of solubility: HT solubility in pION buffer, UV spectrophotometry; settings: pION system solution buffer, pH 4.5, pH 4.5, aqueous buffer, kinetic from dmso stock, Solubility (pH 4.5), pH 4.5 buffer, 16-19 h incubation, 1.0% DMSO
readout-label: log10 solubility (log10 of the value in µg/mL)
Scale: log10; quantity: solubility; unit before log: µg/mL

Cc1ccc(OCc2ccc(C(=O)N(C)CCN(C)C)cc2C)c(-c2csc(N3C[C@H]4CC[C@@H](C3)[C@H]4C(=O)O)n2)c1 | 1.79
Cc1ccc(OCc2ccc(C(=O)N3CC[C@H](CO)C3)cc2C)c(-c2csc(N3C[C@H]4CC[C@@H](C3)[C@H]4C(=O)O)n2)c1 | -0.77
Cc1cc(CN(C)C2CCS(=O)(=O)C2)ccc1COc1c(C)cccc1-c1csc(N2CCC(C(=O)O)CC2)n1 (centres unmarked) | 1.49
Cc1ccc(OCc2ccc(C(=O)N3CCOCC3)cc2C#N)c(-c2csc(N3CCC(C(=O)O)CC3)n2)c1 | -0.35

Given the entry `Cc1ccc(OCc2ccc(CN3CCOCC3)cc2C#N)c(-c2csc(N3CCC(C(=O)O)CC3)n2)c1` , report its measured log10 solubility.
1.61
